// values below are reported EC50
Target: UniProt O75469
Sequence (O75469 whole entry): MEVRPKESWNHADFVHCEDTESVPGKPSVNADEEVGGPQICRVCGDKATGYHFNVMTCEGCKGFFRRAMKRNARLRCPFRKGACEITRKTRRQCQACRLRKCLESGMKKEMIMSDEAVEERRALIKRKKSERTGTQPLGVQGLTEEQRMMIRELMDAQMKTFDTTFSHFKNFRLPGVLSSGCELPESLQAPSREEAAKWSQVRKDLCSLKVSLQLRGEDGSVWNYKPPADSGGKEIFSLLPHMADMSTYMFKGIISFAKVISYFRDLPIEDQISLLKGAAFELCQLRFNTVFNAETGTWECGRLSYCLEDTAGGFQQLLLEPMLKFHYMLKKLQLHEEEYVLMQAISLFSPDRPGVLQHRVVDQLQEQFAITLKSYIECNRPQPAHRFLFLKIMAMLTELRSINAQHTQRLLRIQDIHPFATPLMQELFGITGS
Assay: Agonist activity at human full-length PXR transfected in human HepG2 cells co-transfected with pSG5-RXR assessed as induction of transactivation by dual-luciferase reporter gene assay

mol: C=C1[C@@H](O)CC[C@@]2(C)[C@H]1CCC1=C3CC[C@H]([C@H](C)CCC=C(C)C)[C@@]3(C)CC[C@@H]12
EC50: 21 µM

Field: next compound
Prompt: Which EC50 value is on record for `CC(C)[C@H](C)CC[C@@H](C)[C@H]1CCC2=C3CC[C@H]4[C@H](C)[C@H](O)CC[C@]4(C)[C@H]3CC[C@@]21C` ?
Completion: 18 µM
